Data origin, for the record: paper PMC11694556

TARGET_ENTITY: cypin (cytosolic PSD-95 interactor; guanine deaminase) (Rattus norvegicus)
Construct: gene Gda
Sequence (Q9WTT6 1-454): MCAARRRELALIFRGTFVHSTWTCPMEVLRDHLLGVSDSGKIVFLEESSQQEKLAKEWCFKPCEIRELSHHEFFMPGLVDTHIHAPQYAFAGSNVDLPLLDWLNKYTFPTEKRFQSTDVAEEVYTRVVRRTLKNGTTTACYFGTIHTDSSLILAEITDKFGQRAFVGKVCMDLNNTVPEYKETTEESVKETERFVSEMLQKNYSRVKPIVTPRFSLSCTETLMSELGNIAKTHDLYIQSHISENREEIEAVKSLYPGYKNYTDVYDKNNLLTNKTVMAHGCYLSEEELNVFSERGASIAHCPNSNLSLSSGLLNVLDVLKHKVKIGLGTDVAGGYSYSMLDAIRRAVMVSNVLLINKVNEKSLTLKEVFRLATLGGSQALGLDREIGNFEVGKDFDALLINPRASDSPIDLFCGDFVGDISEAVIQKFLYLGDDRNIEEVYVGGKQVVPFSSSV
PROCEDURE_DETAILS: intrinsic tryptophan fluorescence quenching (Hill fit); also Amplex Red coupled xanthine oxidase/uricase assay
Assay type: binding
OBSERVABLE: pKd
Reminder that pKd means the negative base-10 logarithm of the concentration expressed in mol/L.

query: Query pKd on cypin (cytosolic PSD-95 interactor; guanine deaminase) (Rattus norvegicus) for `Nc1nc2c(ncn2COCCO)c(=O)[nH]1`
result: 3.64
